Biological target: Cytosolic phospholipase A2 (Homo sapiens)
Sequence (whole entry): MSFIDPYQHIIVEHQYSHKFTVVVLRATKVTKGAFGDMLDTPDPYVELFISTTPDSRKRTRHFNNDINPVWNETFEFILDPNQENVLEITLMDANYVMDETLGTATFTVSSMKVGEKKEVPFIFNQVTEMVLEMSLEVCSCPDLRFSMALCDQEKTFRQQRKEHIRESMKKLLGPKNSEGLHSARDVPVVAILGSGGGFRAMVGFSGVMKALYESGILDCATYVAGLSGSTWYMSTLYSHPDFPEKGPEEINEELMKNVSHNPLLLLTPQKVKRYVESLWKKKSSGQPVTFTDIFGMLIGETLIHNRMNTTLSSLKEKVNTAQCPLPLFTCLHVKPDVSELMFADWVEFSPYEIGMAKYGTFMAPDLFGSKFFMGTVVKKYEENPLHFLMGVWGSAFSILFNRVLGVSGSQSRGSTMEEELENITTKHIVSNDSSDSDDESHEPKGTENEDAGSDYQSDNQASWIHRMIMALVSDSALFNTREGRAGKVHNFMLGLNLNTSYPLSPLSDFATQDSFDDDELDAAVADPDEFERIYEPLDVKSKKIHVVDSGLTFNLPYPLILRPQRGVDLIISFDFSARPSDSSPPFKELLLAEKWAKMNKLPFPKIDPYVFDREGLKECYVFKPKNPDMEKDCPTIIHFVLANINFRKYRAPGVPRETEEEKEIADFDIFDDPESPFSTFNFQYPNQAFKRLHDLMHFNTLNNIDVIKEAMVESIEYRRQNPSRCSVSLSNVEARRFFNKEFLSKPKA
Test: Inhibition of human recombinant GIVA cPLA2 at 1 uM in vitro vesicle assay
The source made the active and inactive calls. The rule behind the calls is not given here.
Experimental Readout: inhibition

{"Substance Smiles": "CCCCCCCCCCCCOCC(=O)c1nc(CC(=O)OCC)cs1", "Target Desc": "Cytosolic phospholipase A2 (Homo sapiens)", "Experimental Readout": "inhibition", "Result": "inactive"}
{"Substance Smiles": "O=C(COc1ccc(F)cc1)c1nccs1", "Target Desc": "Cytosolic phospholipase A2 (Homo sapiens)", "Experimental Readout": "inhibition", "Result": "7%"}
{"Substance Smiles": "CCCCCCCCc1ccc(OCC(=O)c2nc3ccccc3s2)cc1", "Target Desc": "Cytosolic phospholipase A2 (Homo sapiens)", "Experimental Readout": "inhibition", "Result": "inactive"}
{"Substance Smiles": "CCCCCCCCc1ccc(OCC(=O)c2nccs2)cc1", "Target Desc": "Cytosolic phospholipase A2 (Homo sapiens)", "Experimental Readout": "inhibition", "Result": "43%"}
{"Substance Smiles": "CCCCCCCCCCCCOCC(=O)c1nc(C(=O)OCC)cs1", "Target Desc": "Cytosolic phospholipase A2 (Homo sapiens)", "Experimental Readout": "inhibition", "Result": "21%"}

Look at each compound and report its inhibition.
1. CCCCCCCCc1ccc(OCC(=O)c2nc(CC(=O)OCC)cs2)cc1
2. O=C(COc1ccc(-c2ccccc2)cc1)c1nccs1
3. O=C(COc1ccccc1)c1nccs1

Ans.
["25%", "26%", "26%"]
